Attribution: ChEMBL document CHEMBL1130573

# procedure.details: Therapeutic index is the ratio of IC50 of compound to that of EC50
# stated.conditions: read-out: Therapeutic index
property.name: selectivity ratio

>>> reported("COc1cc2c(c3oc(=O)ccc13)[C@@H](OC(=O)C13CCC(C)(C(=O)O1)C3(C)C)[C@@H](OC(=O)C13CCC(C)(C(=O)O1)C3(C)C)C(C)(C)O2 (stereo not given in full)")
"> 403000"
>>> reported("COc1cc2ccc(=O)oc2c2c1OC(C)(C)[C@H](OC(=O)C13CCC(C)(C(=O)O1)C3(C)C)[C@@H]2OC(=O)C12CCC(C)(C(=O)O1)C2(C)C (stereo not given in full)")
"> 9.68"
>>> reported("COc1cc2ccc3c(c2oc1=O)[C@@H](OC(=O)C12CCC(C)(C(=O)O1)C2(C)C)[C@@H](OC(=O)C12CCC(C)(C(=O)O1)C2(C)C)C(C)(C)O3 (stereo not given in full)")
"> 25500"
>>> reported("CC1(C)Oc2ccc3ccc(=O)oc3c2[C@@H](OC(=O)C23CCC(C)(C(=O)O2)C3(C)C)[C@H]1OC(=O)C12CCC(C)(C(=O)O1)C2(C)C (stereo not given in full)")
137000

Task: Would you mind telling me what selectivity ratio value was observed for COc1cc(=O)oc2c3c(ccc12)OC(C)(C)[C@H](OC(=O)C12CCC(C)(C(=O)O1)C2(C)C)[C@@H]3OC(=O)C12CCC(C)(C(=O)O1)C2(C)C (stereo not given in full) ?
Result: > 51000
